Assay: qHTS Assay for Lipid Storage Modulators (AID 1519)
Conditions: Drosophila S3 cells, BODIPY lipid droplet/cell ratio, laser cytometry; measured here: lipid channel max response; cells loaded with oleic acid
Records with an inconclusive call do not appear.
# Lookup of reported max response keyed by entry

MOLECULE | max response [%]
CS(=O)(=O)Nc1cccc(-c2nc(Nc3ccccc3)c3ccccc3n2)c1 | 2.43
C[C@H](CCC(=O)NCC(=O)O)[C@H]1CC[C@H]2[C@H]3[C@@H](C[C@@H](O)[C@]12C)[C@]1(C)CC[C@H](O)C[C@@H]1C[C@@H]3O | -0.773
O=C(O)[C@@H]1CCCNC1 | -11.3
COc1cccc2c1CCC1CC(=O)CC[C@@]21C (stereo not given in full) | -5.49
CC(C)CC(N)C(=O)NC(C)C(=O)O (stereo not given) | 21.6
